Where do the numbers come from? From paper PMC7192615.

Biological target: UP1+RGG (UniProt P09651-2 1-249)
Sequence (P09651 1-249): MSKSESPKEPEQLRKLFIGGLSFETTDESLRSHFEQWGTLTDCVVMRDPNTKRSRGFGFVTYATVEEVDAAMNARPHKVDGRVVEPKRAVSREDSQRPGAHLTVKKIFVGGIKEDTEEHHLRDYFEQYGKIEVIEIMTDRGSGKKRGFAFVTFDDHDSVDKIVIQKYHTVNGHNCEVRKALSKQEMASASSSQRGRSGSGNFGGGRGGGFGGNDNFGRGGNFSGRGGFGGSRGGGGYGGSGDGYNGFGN
Assay: ITC; 100 mM KCl, 20% PEG 200; ITC/CD: 20 mM Tris pH 8.0, 100 mM KCl, 25 C; NMR: 10 mM potassium phosphate pH 6.5, 100 mM KCl, 298 K (10% D2O for HSQC)
Conditions: protein: recombinant; tags: C-terminal 6xHis; intramolecular parallel G4
resultType: pKd
// pKd is dimensionless: -log10 of concentration (M)

Problem: Which pKd reading was recorded for the binder UUAGGGUUAGGGUUAGGGUUAGGG (structured_RNA) [TERRA-24] ?
Solution: 5.52
